Assay: Fraction unbound in human plasma by HPLC
Format: ADME, cell-free
measuredParameter: fraction unbound
Keep it simple and answer with nothing but the number.

Input: Return fraction unbound (reported value) for this compound: "COc1ccc(S(=O)(=O)Nc2cc(Cl)cc(Cl)c2O[11CH3])cc1N1CCNCC1"
Output: 0.01

###

Assay: Metabolic stability in baboon plasma assessed as unchanged radioligand at 2 mins by HPLC
Format: ADME, cell-free
Conditions: papio anubis, read-out: Stability
measuredParameter: remaining at 2 min (%)
Quick note: give the figure in %, leave out the unit.

Input: Consider the molecule "COc1ccc(S(=O)(=O)Nc2cc(Cl)cc(Cl)c2O[11CH3])cc1N1CCNCC1" . State its measured remaining at 2 min.
Output: 99

###

Experiment: Metabolic stability in baboon plasma assessed as unchanged radioligand at 30 mins by HPLC
Type: ADME, cell-free
Conditions: papio anubis, read-out: Stability
measuredParameter: remaining at 0.5 h (%)
Write down the numeric answer in % and omit the unit.

Input: Give recorded remaining at 0.5 h. "COc1ccc(S(=O)(=O)Nc2cc(Cl)cc(Cl)c2O[11CH3])cc1N1CCNCC1"
Output: 45

###

Experiment: Metabolic stability in baboon plasma assessed as unchanged radioligand at 4 mins by HPLC
Assay type: ADME, cell-free
Settings: papio anubis, read-out: Stability
measuredParameter: remaining at 4 min (%)
I only need the number, in %, no unit after it.

Input: Using known records, supply remaining at 4 min for "COc1ccc(S(=O)(=O)Nc2cc(Cl)cc(Cl)c2O[11CH3])cc1N1CCNCC1"
Output: 94

###

Assay: Metabolic stability in baboon plasma assessed as unchanged radioligand at 60 mins by HPLC
Format: ADME, cell-free
Conditions: papio anubis, read-out: Stability
measuredParameter: remaining at 1 h

Input: Find the measured remaining at 1 h of "COc1ccc(S(=O)(=O)Nc2cc(Cl)cc(Cl)c2O[11CH3])cc1N1CCNCC1" and report it.
Output: 32%

###

Test: Fraction unbound in baboon plasma by HPLC
Assay type: ADME, cell-free
Conditions: papio anubis
measuredParameter: fraction unbound
Please reply with the value in numeric form only.

Input: Look up fraction unbound of "COc1ccc(S(=O)(=O)Nc2cc(Cl)cc(Cl)c2O[11CH3])cc1N1CCNCC1" and report it.
Output: 0.05
